The origin of these recorded values is patent US20250304549A1.

Please provide measured log10 of IC50 for the entries that follow.
assayed system: pan-HDAC
measurement protocol: In vitro enzyme inhibition assay - HDAC (HDAC-Glo I/II), pan-HDAC
Type: biochemical
Structures can show the parent of a compound that is named as a salt.
All values: base-10 log of IC50 in nM.

Consider the reported log10 of IC50 for these molecules:
* COc1cc(-c2cnc(N3CCC(NCc4ccc(/C=C/C(=O)NO)cn4)CC3)c(C#N)c2-c2ccc(C#N)c(F)c2)ccc1O | 1.69
* COc1ccc(-c2cnc(N3CCC(NCc4ccc(/C=C/C(=O)NO)cc4Cl)CC3)c(C#N)c2-c2ccc(C#N)c(F)c2)cc1O | 0.95

# batch: return log10 of IC50 for each of the 4 molecules below
1. COc1ccc(-c2cnc(N3CCC(NCc4ccc(CCC(=O)NO)c(C#N)c4)CC3)c(C#N)c2-c2ccc(C#N)c(F)c2)cc1O
2. COc1cc(-c2cnc(N3CCC(NCc4cccc(/C=C/C(=O)NO)c4)CC3)c(C#N)c2-c2ccc(C#N)c(F)c2)ccc1O
3. CNC1CCN(c2ncc(-c3ccc(NCc4ccc(C(=O)NO)cc4)c(O)c3)c(-c3ccc(C#N)c(F)c3)c2C#N)CC1 [Example 39, hydrochloride]
4. CC(C)(O)COc1ccc(-c2cnc(N3CCC(NCc4ccc(OCC(=O)NO)cc4)CC3)c(C#N)c2-c2ccc(C#N)c(F)c2)cc1O [Example 192, formate]

Key:
0.92
2.60
2.22
0.44
